Each recorded value in this set is attributed to the supplement of paper PMC11061612.

Let's look at some compounds and their measured combination Emax.
- System: BICR78 (Oral Cavity Carcinoma)
- PROCEDURE_DETAILS: combination Emax (second highest fraction inhibited in the dose matrix, 72 h); higher = more inhibition; extreme values may be limits of the assay
Give the figure only, with no unit attached.

Tell me measured combination Emax for COc1nnc2ccc(N3CCC(c4ccc(OCCN5CCN(C)C(=O)[C@H]5C)cc4)CC3)nn12 [AZD5153] + Cn1cnc2c(F)c(Nc3ccc(Br)cc3Cl)c(C(=O)NOCCO)cc21 [Selumetinib] (first compound max 1 µM, 7x7, partner max 10 µM) please.
0.548

Tell me measured combination Emax for CN(CCO)CC[C@H](CSc1ccccc1)Nc1ccc(S(=O)(=O)NC(=O)c2ccc(N3CCC([C@@H](O)c4ccccc4-c4ccc(Cl)cc4)CC3)cc2)cc1S(=O)(=O)C(F)(F)F [AZD4320] + Cn1cnc2c(F)c(Nc3ccc(Br)cc3Cl)c(C(=O)NOCCO)cc21 [Selumetinib] (first compound max 1 µM, 7x7, partner max 3 µM) please.
0.508

###

Let's look at some molecules and their measured combination Emax.
- Test system: MEG-01 (Chronic Myelogenous Leukemia)
- PROCEDURE_DETAILS: combination Emax (second highest fraction inhibited in the dose matrix, 72 h); higher = more inhibition; extreme values may be limits of the assay
Give the figure only, with no unit attached.

Reference set, count: 3
MOLECULE	TARGET_ENTITY	NUMERIC_READOUT
COc1cc2c(cc1OCCCCCOc1cc3c(cc1OC)C(=O)N1C=C(C)C[C@H]1C=N3)N=C[C@@H]1CC(C)=CN1C2=O [SG3199] + O=C(c1cc(Cc2n[nH]c(=O)c3ccccc23)ccc1F)N1CCN(C(=O)C2CC2)CC1 [Olaparib] (first compound max 0.001 µM, 7x7, partner max 10 µM)	MEG-01 (Chronic Myelogenous Leukemia)	0.111
CC1(C)CCC(CN2CCN(c3ccc(C(=O)NS(=O)(=O)c4ccc(NCC5CCOCC5)c([N+](=O)[O-])c4)c(Oc4cnc5[nH]ccc5c4)c3)CC2)=C(c2ccc(Cl)cc2)C1 [Venetoclax] + CN(C)CCCOc1ccc(-c2ccc3ncc4c(c3c2)n(C2CCOCC2)c(=O)n4C)cn1 [AZD0156] (first compound max 1 µM, 7x7, partner max 1 µM)	MEG-01 (Chronic Myelogenous Leukemia)	0.782
NC1(C(=O)N[C@@H](CCO)c2ccc(Cl)cc2)CCN(c2ncnc3[nH]ccc23)CC1 [Capivasertib] + CCN(CCO)CCCOc1ccc2c(Nc3cc(CC(=O)Nc4cccc(F)c4)[nH]n3)ncnc2c1 [AZD2811] (first compound max 10 µM, 7x7, partner max 1 µM)	MEG-01 (Chronic Myelogenous Leukemia)	0.638

Continue with the next molecule.
Tell me measured combination Emax for CS(=O)(=O)CCNCc1ccc(-c2ccc3ncnc(Nc4ccc(OCc5cccc(F)c5)c(Cl)c4)c3c2)o1 [Lapatinib] + Cn1cnc2c(F)c(Nc3ccc(Br)cc3Cl)c(C(=O)NOCCO)cc21 [Selumetinib] (first compound max 10 µM, 7x7, partner max 10 µM) please.
0.644

###

- System: SW48 (Colorectal Carcinoma)
- PROCEDURE_DETAILS: combination Emax (second highest fraction inhibited in the dose matrix, 72 h); higher = more inhibition; extreme values may be limits of the assay
REPORTED_PROPERTY: combination Emax
Give the figure only, with no unit attached.

Reference set, count: 2
COMPOUND	TARGET_ENTITY	combination Emax
O=C(c1cc(Cc2n[nH]c(=O)c3ccccc23)ccc1F)N1CCN(C(=O)C2CC2)CC1 [Olaparib] + COc1nnc2ccc(N3CCC(c4ccc(OCCN5CCN(C)C(=O)[C@H]5C)cc4)CC3)nn12 [AZD5153] (first compound max 10 µM, 7x7, partner max 1 µM)	SW48 (Colorectal Carcinoma)	0.561
CN(CCO)CC[C@H](CSc1ccccc1)Nc1ccc(S(=O)(=O)NC(=O)c2ccc(N3CCC([C@@H](O)c4ccccc4-c4ccc(Cl)cc4)CC3)cc2)cc1S(=O)(=O)C(F)(F)F [AZD4320] + CN(C)CCCOc1ccc(-c2ccc3ncc4c(c3c2)n(C2CCOCC2)c(=O)n4C)cn1 [AZD0156] (first compound max 1 µM, 7x7, partner max 1 µM)	SW48 (Colorectal Carcinoma)	0.517

Continue with the next compound.
Tell me measured combination Emax for Cc1nc(Nc2ncc(C(=O)Nc3c(C)cccc3Cl)s2)cc(N2CCN(CCO)CC2)n1 [Dasatinib] + CC(=O)Nc1cccc(-n2c(=O)n(C3CC3)c(=O)c3c(Nc4ccc(I)cc4F)n(C)c(=O)c(C)c32)c1 [Trametinib] (first compound max 2 µM, 7x7, partner max 1 µM) please.
0.959

###

- Tested on: EFM-192A (Breast Carcinoma)
- PROCEDURE_DETAILS: combination Emax (second highest fraction inhibited in the dose matrix, 72 h); higher = more inhibition; extreme values may be limits of the assay
REPORTED_PROPERTY: combination Emax

MOLECULE	TARGET_ENTITY	combination Emax
CC1(C)CCC(CN2CCN(c3ccc(C(=O)NS(=O)(=O)c4ccc(NCC5CCOCC5)c([N+](=O)[O-])c4)c(Oc4cnc5[nH]ccc5c4)c3)CC2)=C(c2ccc(Cl)cc2)C1 [Venetoclax] + COc1cc(Nc2ncc3c(n2)-c2ccc(Cl)cc2C(c2c(F)cccc2OC)=NC3)ccc1C(=O)O [Alisertib] (first compound max 1 µM, 7x7, partner max 10 µM)	EFM-192A (Breast Carcinoma)	0.167
COc1nnc2ccc(N3CCC(c4ccc(OCCN5CCN(C)C(=O)[C@H]5C)cc4)CC3)nn12 [AZD5153] + C=CCn1c(=O)c2cnc(Nc3ccc(N4CCN(C)CC4)cc3)nc2n1-c1cccc(C(C)(C)O)n1 [AZD1775] (first compound max 1 µM, partner max 1 µM)	EFM-192A (Breast Carcinoma)	0.391

Continue with the next molecule.
Tell me measured combination Emax for COc1nnc2ccc(N3CCC(c4ccc(OCCN5CCN(C)C(=O)[C@H]5C)cc4)CC3)nn12 [AZD5153] + CC1(C)CCC(CN2CCN(c3ccc(C(=O)NS(=O)(=O)c4ccc(NCC5CCOCC5)c([N+](=O)[O-])c4)c(Oc4cnc5[nH]ccc5c4)c3)CC2)=C(c2ccc(Cl)cc2)C1 [Venetoclax] (first compound max 1 µM, 7x7, partner max 1 µM) please.
0.326

###

- System: SNU-61 (Colorectal Carcinoma);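 note: after 72 h of two-drug dosing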
- PROCEDURE_DETAILS: Bliss excess, mean over the matrix (fraction); higher = more synergy
REPORTED_PROPERTY: Bliss excess
Give the figure only, with no unit attached.

MOLECULE	NUMERIC_READOUT
CC(=O)c1c(C)c2cnc(Nc3ccc(N4CCNCC4)cn3)nc2n(C2CCCC2)c1=O [Palbociclib] + CC1(C)CCC(CN2CCN(c3ccc(C(=O)NS(=O)(=O)c4ccc(NCC5CCOCC5)c([N+](=O)[O-])c4)c(Oc4cnc5[nH]ccc5c4)c3)CC2)=C(c2ccc(Cl)cc2)C1 [Venetoclax] (first compound max 10 µM, 7x7, partner max 1 µM)	-0.0361
COc1cc2c(cc1OCCCCCOc1cc3c(cc1OC)C(=O)N1C=C(C)C[C@H]1C=N3)N=C[C@@H]1CC(C)=CN1C2=O [SG3199] + O=C(c1cc(Cc2n[nH]c(=O)c3ccccc23)ccc1F)N1CCN(C(=O)C2CC2)CC1 [Olaparib] (first compound max 0.001 µM, 7x7, partner max 10 µM)	-0.0453
CN(CCO)CC[C@H](CSc1ccccc1)Nc1ccc(S(=O)(=O)NC(=O)c2ccc(N3CCC([C@@H](O)c4ccccc4-c4ccc(Cl)cc4)CC3)cc2)cc1S(=O)(=O)C(F)(F)F [AZD4320] + C[C@@H](Nc1cc(F)cc(F)c1)c1cc(C(=O)N(C)C)cc2c(=O)cc(N3CCOCC3)oc12 [AZD8186] (first compound max 1 µM, 7x7, partner max 3 µM)	0.016
C[C@@H](c1ccc2nccn2c1)n1nnc2ncc(-c3cnn(C)c3)nc21 [Savolitinib] + CN(CC[C@H](CSC1=CC=CC=C1)NC2=C(C=C(C=C2)S(=O)(=O)NC(=O)C3=CC=C(C=C3)N4CCC(CC4)[C@H](C5=CC=CC=C5C6=CC=C(C=C6)Cl)O)S(=O)(=O)C(F)(F)F)CCO [AZD4320] (first compound max 1 µM, 7x7, partner max 1 µM)	-0.0357
CC1(C)CCC(CN2CCN(c3ccc(C(=O)NS(=O)(=O)c4ccc(NCC5CCOCC5)c([N+](=O)[O-])c4)c(Oc4cnc5[nH]ccc5c4)c3)CC2)=C(c2ccc(Cl)cc2)C1 [Venetoclax] + Cc1cc2ncnn2cc1Nc1ncc2c(n1)n(C1CCOCC1)c(=O)n2C [AZD7648] (first compound max 1 µM, 7x7, partner max 10 µM)	0.0023

Tell me measured Bliss excess for Cc1c2c(nn1C)CSCc1cc(n(C)n1)CSc1cc(c3ccccc3c1)OCCCc1c(C(=O)O)n(C)c3c-2c(Cl)ccc13 [AZD5991] + C[C@@H](Nc1cc(F)cc(F)c1)c1cc(C(=O)N(C)C)cc2c(=O)cc(N3CCOCC3)oc12 [AZD8186] (first compound max 1 µM, 7x7, partner max 3 µM) please.
-0.0277

Tell me measured Bliss excess for NC1(C(=O)N[C@@H](CCO)c2ccc(Cl)cc2)CCN(c2ncnc3[nH]ccc23)CC1 [Capivasertib] + Cn1cnc2c(F)c(Nc3ccc(Br)cc3Cl)c(C(=O)NOCCO)cc21 [Selumetinib] (first compound max 10 µM, 7x7, partner max 10 µM) please.
0.025
